# Test system: M14
# Procedure Text: NCI tumour cell line growth inhibition, 48 h
Activity calls are given as the source filed them. No stated cut-off is given here; in the data, active = GI50 up to about 1.1 µM and inactive = higher. Square brackets hold non-standard residues; d marks the D form. Peptide text beside a SMILES is read from it. * marks the point of attachment. Boc = CC(C)(C)OC(=O)*; OBn = c1ccc(CO*)cc1
Property: GI50

Check out these entries, answers already filled in.
C[C@@H](NC(=O)CNC(=O)OC(C)(C)C)C(=O)N[C@@H](Cc1ccccc1)C(=O)OCc1ccccc1 (Boc-Gly-[dA]-Phe-OBn)
19.8 µM (inactive)
CC(=O)NC(CC(C)C)C(=O)NC(Cc1ccccc1)C(=S)N1CCCC1 (centres undefined)
> 100 µM (inactive)
CCOc1ccc2nc3nc(O)nc(C)c3c(NC(C)(CO)CO)c2c1
> 100 µM (inactive)
O=C(O)C1C2CCC(O2)C1C(=O)N1CCCCC1 (centres undefined)
12.7 µM (inactive)
O=[N+]([O-])c1ccc(CN(CCCl)OCCCl)cc1
> 100 µM (inactive)
COC(OC)C1OC(CO)C(n2ccc(N)nc2=O)C1O (centres undefined)
> 100 µM (inactive)
CCC(=O)C(c1ccccc1)c1ccccn1 (centres undefined)
> 100 µM (inactive)
CCNC1C2(CCCCC2)NC(=O)C12CCCCC2 (centres undefined)
> 100 µM (inactive)

Shift focus to the following entry.
## Task Form field: reported GI50 of COC1(OC)CC2C(=O)N(Cc3ccccc3)C1CC2S(=O)(=O)c1ccccc1 (centres undefined)
## Result > 100 µM (inactive)

Recorded values, source ChEMBL document CHEMBL1201862.
